Where do these numbers come from? They come from ChEMBL document CHEMBL5038618.

- TARGET OR SYSTEM: Protein cereblon/Glycogen synthase kinase-3 beta (Homo sapiens, UniProt P49841+Q96SW2)
- Sequence (P49841 whole entry, looked up): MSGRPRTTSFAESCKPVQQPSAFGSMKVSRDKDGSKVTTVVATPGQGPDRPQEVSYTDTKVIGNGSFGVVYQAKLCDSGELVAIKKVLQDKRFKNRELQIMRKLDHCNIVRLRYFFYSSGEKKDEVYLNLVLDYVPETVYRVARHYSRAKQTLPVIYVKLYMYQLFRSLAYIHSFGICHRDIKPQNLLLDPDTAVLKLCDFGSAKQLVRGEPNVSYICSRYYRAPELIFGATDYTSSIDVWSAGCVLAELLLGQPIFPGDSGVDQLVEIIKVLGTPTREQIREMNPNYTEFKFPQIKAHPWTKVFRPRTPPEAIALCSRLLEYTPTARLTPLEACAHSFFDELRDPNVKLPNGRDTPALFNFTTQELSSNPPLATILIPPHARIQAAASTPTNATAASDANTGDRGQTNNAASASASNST
- Sequence (Q96SW2 whole entry, looked up): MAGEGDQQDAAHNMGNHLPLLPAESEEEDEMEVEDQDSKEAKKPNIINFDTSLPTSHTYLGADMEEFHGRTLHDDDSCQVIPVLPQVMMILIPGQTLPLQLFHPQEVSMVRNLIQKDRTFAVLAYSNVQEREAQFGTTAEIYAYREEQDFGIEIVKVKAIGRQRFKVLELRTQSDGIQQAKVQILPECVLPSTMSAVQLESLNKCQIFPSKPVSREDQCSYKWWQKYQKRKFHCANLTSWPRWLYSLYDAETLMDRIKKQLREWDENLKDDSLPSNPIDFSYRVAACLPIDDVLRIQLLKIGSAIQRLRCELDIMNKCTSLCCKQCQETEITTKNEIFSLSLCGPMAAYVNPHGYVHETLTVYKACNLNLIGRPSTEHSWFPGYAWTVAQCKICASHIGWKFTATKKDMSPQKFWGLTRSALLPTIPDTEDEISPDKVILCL
- PROCEDURE DETAILS: Protac activity at CRBN/GSK3beta in human SH-SY5Y cells assessed as induction of GSK3beta degradation at 0.1 uM measured after 24 hrs
- Assay type: cell-based
OBSERVABLE: Activity

{"columns": ["MOLECULE", "OBS VALUE"],
 "data": [
  ["Nc1ncc(-c2ccc(S(=O)(=O)N3CCN(CCCCc4cn(CCOCCOCCNc5cccc6c5C(=O)N(C5CCC(=O)NC5=O)C6=O)nn4)CC3)cc2)nc1C(=O)Nc1cccnc1 (centres undefined)", "38.2%"],
  ["Nc1ncc(-c2ccc(S(=O)(=O)N3CCN(CCc4cn(CCOCCOCCOCCOCCOCCNc5cccc6c5C(=O)N(C5CCC(=O)NC5=O)C6=O)nn4)CC3)cc2)nc1C(=O)Nc1cccnc1 (centres undefined)", "61.6%"],
  ["Nc1ncc(-c2ccc(S(=O)(=O)N3CCN(CCCCc4cn(CCOCCOCCOCCOCCOCCOCCNc5cccc6c5C(=O)N(C5CCC(=O)NC5=O)C6=O)nn4)CC3)cc2)nc1C(=O)Nc1cccnc1 (centres undefined)", "56.7%"],
  ["Nc1ncc(-c2ccc(S(=O)(=O)N3CCN(Cc4cn(CCOCCOCCOCCOCCNc5cccc6c5C(=O)N(C5CCC(=O)NC5=O)C6=O)nn4)CC3)cc2)nc1C(=O)Nc1cccnc1 (centres undefined)", "25.7%"]
]}

---

- TARGET OR SYSTEM: Protein cereblon/Glycogen synthase kinase-3 alpha (Homo sapiens, UniProt P49840+Q96SW2)
- Sequence (P49840 2-483 limits assumed, one chain of several): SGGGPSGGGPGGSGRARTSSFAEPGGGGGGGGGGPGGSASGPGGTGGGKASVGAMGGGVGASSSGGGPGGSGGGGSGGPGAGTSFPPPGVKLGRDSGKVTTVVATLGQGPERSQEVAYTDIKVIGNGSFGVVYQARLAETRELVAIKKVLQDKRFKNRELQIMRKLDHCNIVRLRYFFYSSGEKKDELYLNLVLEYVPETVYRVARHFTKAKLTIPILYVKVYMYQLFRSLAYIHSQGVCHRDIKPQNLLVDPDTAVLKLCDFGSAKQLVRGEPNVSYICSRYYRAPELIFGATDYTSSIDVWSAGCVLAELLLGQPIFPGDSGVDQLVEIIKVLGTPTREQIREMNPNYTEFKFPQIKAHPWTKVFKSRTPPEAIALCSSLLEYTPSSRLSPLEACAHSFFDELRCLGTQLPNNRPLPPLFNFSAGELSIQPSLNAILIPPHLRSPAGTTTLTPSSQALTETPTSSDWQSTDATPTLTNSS
- PROCEDURE DETAILS: Protac activity at CRBN/GSK3alpha in human SH-SY5Y cells assessed as induction of GSK3alpha protein degradation at 1 uM measured after 24 hrs
- Type: cell-based

{"columns": ["COMPOUND", "UNIT ABBREVIATION", "LIMIT OPERATOR", "Activity"],
 "data": [
  ["COc1ccc(-c2ocnc2C(=O)NCCCc2cn(CCOCCOCCOCCNC(=O)CNc3cccc4c3CN(C3CCC(=O)NC3=O)C4=O)nn2)cc1Cl (configuration not stated)", "%", "<", 5],
  ["Nc1ncc(-c2ccc(S(=O)(=O)N3CCN(CCCCc4cn(CCOCCOCCOCCOCCNc5cccc6c5C(=O)N(C5CCC(=O)NC5=O)C6=O)nn4)CC3)cc2)nc1C(=O)Nc1cccnc1 (configuration not stated)", "%", "=", 90.3],
  ["COc1ccc(-c2ocnc2C(=O)NCCCc2cn(CCOCCOCCOCCNc3cccc4c3C(=O)N(C3CCC(=O)NC3=O)C4=O)nn2)cc1I (configuration not stated)", "%", "=", 60.9],
  ["Nc1ncc(-c2ccc(S(=O)(=O)N3CCN(CCCCc4cn(CCOCCOCCNc5cccc6c5C(=O)N(C5CCC(=O)NC5=O)C6=O)nn4)CC3)cc2)nc1C(=O)Nc1cccnc1 (configuration not stated)", "%", "=", 95.1],
  ["Nc1ncc(-c2ccc(S(=O)(=O)N3CCN(Cc4cn(CCOCCOCCOCCOCCNc5cccc6c5C(=O)N(C5CCC(=O)NC5=O)C6=O)nn4)CC3)cc2)nc1C(=O)Nc1cccnc1 (configuration not stated)", "%", "=", 79.5],
  ["COc1ccc(-c2ocnc2C(=O)NCCCc2cn(CCOCCOCCOCCOCCOCCOCCNc3cccc4c3C(=O)N(C3CCC(=O)NC3=O)C4=O)nn2)cc1I (configuration not stated)", "%", "=", 25.2],
  ["Nc1ncc(-c2ccc(S(=O)(=O)N3CCN(CCc4cn(CCOCCOCCOCCOCCOCCNc5cccc6c5C(=O)N(C5CCC(=O)NC5=O)C6=O)nn4)CC3)cc2)nc1C(=O)Nc1cccnc1 (configuration not stated)", "%", "=", 87.8],
  ["Nc1ncc(-c2ccc(S(=O)(=O)N3CCN(CCc4cn(CCOCCOCCOCCOCCOCCOCCNc5cccc6c5C(=O)N(C5CCC(=O)NC5=O)C6=O)nn4)CC3)cc2)nc1C(=O)Nc1cccnc1 (configuration not stated)", "%", "=", 93.9],
  ["Nc1ncc(-c2ccc(S(=O)(=O)N3CCN(CCc4cn(CCOCCOCCOCCOCCNc5cccc6c5C(=O)N(C5CCC(=O)NC5=O)C6=O)nn4)CC3)cc2)nc1C(=O)Nc1cccnc1 (configuration not stated)", "%", "=", 91.8],
  ["Nc1ncc(-c2ccc(S(=O)(=O)N3CCN(Cc4cn(CCOCCOCCNc5cccc6c5C(=O)N(C5CCC(=O)NC5=O)C6=O)nn4)CC3)cc2)nc1C(=O)Nc1cccnc1 (configuration not stated)", "%", "=", 68.9],
  ["COc1ccc(-c2ocnc2C(=O)NCCCc2cn(CCOCCOCCOCCNc3cccc4c3C(=O)N(C3CCC(=O)NC3=O)C4=O)nn2)cc1Cl (configuration not stated)", "%", "=", 62.4],
  ["Nc1ncc(-c2ccc(S(=O)(=O)N3CCN(CCCCc4cn(CCOCCOCCOCCOCCOCCNc5cccc6c5C(=O)N(C5CCC(=O)NC5=O)C6=O)nn4)CC3)cc2)nc1C(=O)Nc1cccnc1 (configuration not stated)", "%", "=", 94.3]
]}
